System: Pseudomonas aeruginosa
Type: cell-based
setup conditions: 16 h
Procedure: Selected bacterial strains were obtained from Biological Resource Center, NITE (NBRC; Tokyo, Japan). E. coli DH5α was purchased from BioDynamics Laboratory, Inc. (Tokyo, Japan). The antimicrobial activities of the peptides against the gram-positive S. aureus and gram-negative E. coli DH5α, P. aeruginosa, and MDRP were measured using standard broth microdilution method as previously described. […]
Square brackets hold non-standard residues; d marks the D form. Peptide text beside a SMILES is read from it. Aib = CC(C)(N)C(=O)O
endpoint label: MIC, Gram Negative, P.a. (µM)
Your answer should be a plain number; it is taken to be in µM.

Report its MIC, Gram Negative, P.a. with Pseudomonas aeruginosa as the test system: CC[C@H](C)[C@H](NC(=O)CN)C(=O)N[C@@H](CCCCN)C(=O)N[C@@H](CCCCN)C(=O)N[C@@H](Cc1ccccc1)C(=O)N[C@@H](CC(C)C)C(=O)N[C@@H](CCCCN)C(=O)N[C@@H](CO)C(=O)NC(C)(C)C(=O)N[C@@H](CCCCN)C(=O)N[C@@H](CCCCN)C(=O)N[C@@H](Cc1ccccc1)C(=O)N[C@H](C(=O)N[C@@H](CCCCN)C(=O)NC(C)(C)C(=O)N[C@@H](Cc1ccccc1)C(=O)N[C@@H](CCCCN)C(N)=O)C(C)C [Peptide 1, reference compound] (H-GIKKFLKS[Aib]KKFVK[Aib]FK-NH2)
3.125
